experiment: Measurement of logP values by HPLC on reversed phase columns (EEC directive 79/831 Annex V.A8); format: physicochemical; conditions: pH 2.7
METRIC: logP

CC(C)CN(C)C(=O)c1cc(-c2ncnc(Nc3ccc(F)c(F)c3)n2)ccn1 | 3.19
CCCC(=O)O/N=C(/N)c1cc(-c2ncnc(Nc3cccc(Cl)c3)n2)ccn1 | 3.8
CCN(C)C(=O)c1cc(-c2ncnc(Nc3cc(F)ccc3F)n2)ccn1 | 2.39
CN(CC1CC1)C(=O)c1cc(-c2ccnc(Nc3ccnc(Cl)c3)n2)ccn1 | 2.28
CCN(CC)C(=O)c1cc(-c2ncnc(Nc3ccc(F)c(F)c3)n2)ccn1 | 2.88
COCC(COC)NC(=O)c1cc(-c2ncnc(Nc3cccc(Cl)c3)n2)ccn1 | 3.39
COc1cccc(Nc2ncnc(-c3ccnc(C(=O)N(C)C(C)C)c3)n2)c1 | 2.51
CCC(=NOC1CCCC1)c1cc(-c2ncnc(Nc3cccc(Cl)c3)n2)ccn1 (mixture of isomers) | 6.39
CC(C)N(C)C(=O)c1cc(-c2ncnc(Nc3cccc(C(F)(F)F)c3)n2)ccn1 | 3.15

----------
Entries and their logP values follow.
assay: Measurement of logP values by HPLC on reversed phase columns (EEC directive 79/831 Annex V.A8); type: physicochemical; settings: pH 2.7
METRIC: logP

CCCN(CCC)C(=O)c1cc(-c2ncnc(Nc3cccc(Cl)c3)n2)ccn1 [Example B124] | 3.89
CC(=NOCC(C)C)c1cc(-c2ncnc(Nc3cccc(Cl)c3)n2)ccn1 (mixture of isomers) [B44] | 5.63
CC(C)CN(C)C(=O)c1cc(-c2ncnc(Nc3cccc(OC(F)(F)F)c3)n2)ccn1 [Example B267] | 3.73
CCON(C)C(=O)c1cc(-c2ncnc(Nc3ccsc3)n2)ccn1 [Example C33] | 2.26
CC(=NOCC(F)(F)F)c1cc(-c2ncnc(Nc3cccc(Cl)c3)n2)ccn1 (mixture of isomers) [B73] | 4.58
CON(C)C(=O)c1cc(-c2ncnc(Nc3cccc(C(F)F)c3)n2)ccn1 [B412] | 2.34
CCCC(C)NC(=O)c1cc(-c2ncnc(Nc3cccc(Cl)c3)n2)ccn1 (centres unmarked) [Example B118] | 4.54
CN(C(=O)c1cc(-c2ncnc(Nc3cccc(Cl)c3)n2)ccn1)C1CCCC1 [Example B149] | 3.51

----------
Documented logP across a set of compounds
assay: Measurement of logP values by HPLC on reversed phase columns (EEC directive 79/831 Annex V.A8); format: physicochemical; settings: pH 2.7
METRIC: logP

O=C(c1cc(-c2ncnc(Nc3ccc(F)c(Cl)c3)n2)ccn1)N1CCCC1 [B190] | 3
CC(C)N(C)C(=O)c1cc(-c2ncnc(Nc3cccc(OC(F)(F)F)c3)n2)ccn1 [B269] | 3.29
Cc1ccc(Nc2ncnc(-c3ccnc(C(=O)N(C)CC4CC4)c3)n2)cc1Cl [Example B367] | 3.53

----------
test: Measurement of logP values by HPLC on reversed phase columns (EEC directive 79/831 Annex V.A8); format: physicochemical; settings: pH 2.7
METRIC: logP

CC(=NNc1ccc(Cl)cc1)c1cc(-c2ncnc(Nc3cccc(Cl)c3)n2)ccn1 [Example B82] | 4.97
CC(=O)O/N=C(/N)c1cc(-c2ncnc(Nc3cccc(Cl)c3)n2)ccn1 [B109] | 2.95
COC(=O)NN=C(C)c1cc(-c2ncnc(Nc3cccc(Cl)c3)n2)ccn1 [B83] | 2.86
COC(=O)c1cc(-c2ncnc(Nc3ccc(Cl)c(OC)c3)n2)ccn1 [B417] | 2.80
CCC(=NOCC(C)C)c1cc(-c2ncnc(Nc3cccc(Cl)c3)n2)ccn1 (mixture of isomers) [B65] | 6.19
CN(CC(F)F)C(=O)c1cc(-c2ncnc(Nc3cccc(OC(F)F)c3)n2)ccn1 [Example B370] | 2.86
C#CCN(CC)C(=O)c1cc(-c2ncnc(Nc3cccc(C(F)F)c3)n2)ccn1 [B420] | 2.86
O=C(NC1COC1)c1cc(-c2ncnc(Nc3cccc(Cl)c3)n2)ccn1 [B112] | 2.6
CC(=O)Nc1cccc(Nc2ncnc(-c3ccnc(C(=O)N(C)C)c3)n2)c1 [Example B307] | 1.4
